meta.source: patent US11472877

# Measured Target: T1, mouse TREM2 on BWZ cells (mouse, UniProt Q99NH8 19-227)
# T1 construct: whole, on cells; also called BWZ Mouse TREM2
# T1 sequence (looked up): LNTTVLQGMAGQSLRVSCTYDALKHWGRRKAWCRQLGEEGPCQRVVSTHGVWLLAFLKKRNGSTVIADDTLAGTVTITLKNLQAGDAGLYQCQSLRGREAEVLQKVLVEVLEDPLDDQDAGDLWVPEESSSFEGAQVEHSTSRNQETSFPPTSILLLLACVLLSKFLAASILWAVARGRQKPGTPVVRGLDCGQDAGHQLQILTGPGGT
# Protocol Details: FACS, BWZ mouse TREM2

Binder: T1-21 (antibody, IgG1, V domains shown, huIgG1; also called TI-21; ADI-19088) VH: EVQLVESGGGLVQPGGSLRLSCAASGFTFSSYSMNWVRQAPGKGLEWVSYISSSSSTIYYADSVKGRFTISRDNAKNSLYLQMNSLRAEDTAVYYCARGGPLGYGDYKGMDVWGQGTTVTVSS VL: DIQLTQSPSSLSASVGDRVTITCRASQSISSFLNWYQQKPGKAPKLLIYAASSLQSGVPSRFSGSGSGTDFTLTISSLQPEDFATYYCQQSYSDLTFGGGTKVEIK
FOB Fold Over Background: 0.9 fold
//
Binder: T1-24 (antibody, IgG1, V domains shown, huIgG1; also called TI-24; ADI-19150) VH: EVQLVESGGGLVQPGRSLRLSCAASGFTFDDYAMHWVRQAPGKGLEWVSGITWNSGSIGYADSVKGRFTISRDNAKNSLYLQMNSLRAEDTALYYCAKGPRLLSALDVWGQGTMVTVSS VL: DIQMTQSPSTLSASVGDRVTITCRASQSISSWLAWYQQKPGKAPKLLIYKASSLESGVPSRFSGSGSGTEFTLTISSLQPDDFATYYCQQDSIYPITFGGGTKVEIK
FOB Fold Over Background: 1.2 fold
//
Binder: T1-80 (antibody, IgG1, V domains shown, huIgG1; also called TI-80; ADI-19159) VH: QVQLVESGGGVVQPGRSLRLSCAASGFTFSSYGMHWVRQAPGKGLEWVALIWYDGSNKYYADSVKGRFTISRDNSKNTLYLQMNSLRAEDTAVYYCARELIVGATGGLTYYYGMDVWGQGTTVTVSS VL: EIVMTQSPATLSVSPGERATLSCRASQSVGSNLAWYQQKPGQAPRLLIYGASTRATGIPARFSGSGSGTEFTLTISSLQSEDFAVYYCQQDHDRPLTFGGGTKVEIK
FOB Fold Over Background: 0.9 fold
